experimental_system: nuclear factor-kappa B (NF-kB)-inducing kinase (NIK) (Homo sapiens)
Construct: made in house; host or cells: baculovirus-infected insect cells
Sequence (Q99558 whole entry): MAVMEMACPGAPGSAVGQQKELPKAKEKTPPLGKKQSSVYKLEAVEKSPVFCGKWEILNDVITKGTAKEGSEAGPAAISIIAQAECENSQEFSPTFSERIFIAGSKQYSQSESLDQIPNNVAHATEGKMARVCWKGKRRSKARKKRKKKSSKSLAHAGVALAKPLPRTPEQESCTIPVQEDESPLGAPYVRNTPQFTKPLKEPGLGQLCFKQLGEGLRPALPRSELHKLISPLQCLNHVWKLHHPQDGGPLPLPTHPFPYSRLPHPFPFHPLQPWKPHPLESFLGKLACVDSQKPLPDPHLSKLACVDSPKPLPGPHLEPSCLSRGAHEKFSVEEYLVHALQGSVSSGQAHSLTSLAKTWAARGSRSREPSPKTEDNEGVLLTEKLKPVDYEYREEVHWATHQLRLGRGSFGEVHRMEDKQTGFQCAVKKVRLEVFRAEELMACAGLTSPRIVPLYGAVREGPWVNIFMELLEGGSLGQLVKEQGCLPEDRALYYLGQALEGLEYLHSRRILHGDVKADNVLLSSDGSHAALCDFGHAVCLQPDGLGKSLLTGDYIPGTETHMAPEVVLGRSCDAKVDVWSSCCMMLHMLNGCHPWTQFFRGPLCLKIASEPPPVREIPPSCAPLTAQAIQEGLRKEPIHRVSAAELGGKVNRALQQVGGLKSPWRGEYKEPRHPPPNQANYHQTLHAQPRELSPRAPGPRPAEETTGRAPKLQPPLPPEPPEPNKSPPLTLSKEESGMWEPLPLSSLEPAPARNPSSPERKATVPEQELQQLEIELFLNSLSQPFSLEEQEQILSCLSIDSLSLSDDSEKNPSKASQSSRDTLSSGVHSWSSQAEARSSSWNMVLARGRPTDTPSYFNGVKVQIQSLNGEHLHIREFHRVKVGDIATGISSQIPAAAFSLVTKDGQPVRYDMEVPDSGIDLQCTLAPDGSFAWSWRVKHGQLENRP
experimental_details: NIK enzyme inhibition assay (Transcreener ADP fluorescence polarization, NIK ADP-FP)
Format: biochemical

compound | reported_relation | Ki / nM
COCCNc1cnc(-c2cc(C#C[C@]3(O)CCN(C)C3=O)c(F)cc2F)nc1C(N)=O | = | 0.1
Cc1nc([C@](C)(O)C#Cc2cccc(-c3nc(C(N)=O)c(N)cc3F)c2)no1 | = | 8.75
Cc1cc(-c2cccc(C#C[C@]3(O)CCN(C)C3=O)c2)nc(C(N)=O)c1N | < | 0.1
CC(=O)Nc1cc(C(N)=O)nc(-c2cccc(C#C[C@]3(O)CCN(C)C3=O)c2)c1 | = | 0.08
CN1CCC(O)(C#Cc2cccc(-c3nc(C(N)=O)ncc3NCC(F)(F)F)c2)C1=O (stereo in doubt) | = | 879

All values here come from patent US20160185797A1.
